Assay: yeast display, Sf9 membrane polyspecificity reagent, FACS + sequencing; frameworks hold sequencing errors

- record_sequence: "QVQLVESGGGLVQAGGSLRISCAASGITFKKNDMGWYRQAPGKERELVAAISGRGGSTYYADSVKGRFTISRDNAKNTVYLQMNSLKPEDTAVYYCAADNFKGDSYGTGTYDYWGQGTQVTVSS"
  polyreactivity (PSR sort gate): "high polyreactivity"
- record_sequence: "QVQLVESGGGLVQAGGSLRLSSAASGSIFKYNAMGWYRQAPGEERELVAAIRWSGGSTYYADSVKGRFTISRDNAKNTVYLQMNSLKPEDTAVYYCAAEYFNQNTRQGYDYWGQGSQVTVSS"
  polyreactivity (PSR sort gate): "low polyreactivity"
- record_sequence: "QVQLVESGGGLVQAGGSLRLSCAASGSTFTRNAMGWYRQAPGKERELVAAITSSGGSTYYADSVKGRFTISRDNAKNTVYLQMNSLKPEDTAVYYCNADFRTYYDSEYDYWGQGTQVTVSS"
  polyreactivity (PSR sort gate): "low polyreactivity"
- record_sequence: "QVQLVESGGGLVQAGGRLRLSCAASGSTITYYTMGWYRQAPGKERELVAAISGSGGRTYYADSVKGRFTISRDNAKNTVYLQMNSLKPEDTAVYYCAAVYQLSRYDYWGQGTQVTVSS"
  polyreactivity (PSR sort gate): "high polyreactivity"
- record_sequence: "QVQLVESGGGLVQAGGSLRLSCAASGRIFGAYAMGWYRQAPGKEREWVAVINWRSGGTYYADSVKGRFTISRDNAKNTVYLQMNSLKPVDTAVYYCAADDYGFFSAGDFDYWGHGTQVTVSS"
  polyreactivity (PSR sort gate): "high polyreactivity"
- record_sequence: "QVQLVESGVGLVQAGGRLRLICAASGITFGPNALGWYRQAPGKERELVAAISWRGGSTYNADSVKGRFTISRDNGKNTVYLQMNSLKPEDTAVYYCAADLAYGAMVYWGQGTQVTVSS"
  polyreactivity (PSR sort gate): "low polyreactivity"
- record_sequence: "QLQLVESGGGLVQAGGSLRLSCAASGFISWCNAMGWYRQAPGKERELVAAISWRDARTYYADSVKGRFTLSRDNAKNTVYLQMNSLKPEDTAVYYCNAVTAYVSRYLRGYRWFDYWGQGTQVTVSS"
  polyreactivity (PSR sort gate): "low polyreactivity"
- record_sequence: "QVQLVESGGGLVQAGGSLRLSCAASGFIFWLYAMGWYRQAPGKERELVATITYSDGSTYYADSVKGRFTISRDNAKNTVYLQMNSLKPEDTAVYYCAAEVYYGYDYWGQGTQVTVSS"
  polyreactivity (PSR sort gate): "low polyreactivity"
- record_sequence: "QVQLVESGGGLVQAGGSLRLSCAASGSTLSRYTMGWYRPEPGKERELVAAIRSSGGSTYYADSVKGRFTISRDNAKNTVYLQMNSLKPEDTAVYYCARTQQRTTERVHWIRYYYWGQGTQVTVSS"
  polyreactivity (PSR sort gate): "low polyreactivity"
- record_sequence: "QFQLVESGGGLVQAGGSLRLSCAASGSIFGYYAMGWYRQAPGKESELVAAISASGGTTYYADSVKGRFTISRDYAKNTVYLQMNSLKPEDTAVYYCNKLYLKPGRYYYWGQGTQVTVSS"
  polyreactivity (PSR sort gate): "high polyreactivity"
- record_sequence: "QVQLVESGGGLVQAGGSLRLSCAASGSLFGRYAMGWYRQAPGTEREFVAAISRGATNTYYADSVKGRFTISRDNAKNTVYLQMNSLKPEDTAVYYCARTQRYDYGYDYWGQGTQVTVSS"
  polyreactivity (PSR sort gate): "low polyreactivity"
- record_sequence: "QVQLVESGGGLVQAGGSLRLSCAASGRIFAGYAMGWYRQAPGKERELVAAISKRGGSTYYADSVKGRFTISRDKAKNTVYLQMNSLKPEDTAVYYCAADTGYPNGQGQGYQNFGGYYWGQGTQVTVSS"
  polyreactivity (PSR sort gate): "high polyreactivity"
- record_sequence: "QVQLVESGGGLVQAGGSLRLSCAASGSTFTKNAMGWYRQAPGKERELVVVINRSGTSTYYADSVKGRFTISRDNAKNTVYLQMNSLKPEDTAVYYCATKYARTAGGGYYWGQGTQVTVSS"
  polyreactivity (PSR sort gate): "high polyreactivity"
